biological target: recombinant human monoamine oxidase A (hMAO-A) (Homo sapiens, UniProt P21397); test: hMAO-A enzyme kinetics (Lineweaver-Burk, Dixon, secondary plots); type: biochemical; settings: Kic, hMAO-A, from secondary plots
Below is a list of entries, each paired with its recorded Ki value.
MEASURED_METRIC: Ki (µM)

                                smiles_text                            assayed_target  observed_value
0  C[C@H]1COC2=C1C(=O)C(=O)c1c2ccc2c1CCCC2(C)C  recombinant human monoamine oxidase A (hMAO-A) (Homo sapiens, UniProt P21397)            4.99
1    Cc1coc2c1C(=O)C(=O)c1c-2ccc2c(C)cccc12  recombinant human monoamine oxidase A (hMAO-A) (Homo sapiens, UniProt P21397)            1.69

====

Target: recombinant human monoamine oxidase A (hMAO-A) (Homo sapiens, UniProt P21397)
Sequence (P21397 1-527): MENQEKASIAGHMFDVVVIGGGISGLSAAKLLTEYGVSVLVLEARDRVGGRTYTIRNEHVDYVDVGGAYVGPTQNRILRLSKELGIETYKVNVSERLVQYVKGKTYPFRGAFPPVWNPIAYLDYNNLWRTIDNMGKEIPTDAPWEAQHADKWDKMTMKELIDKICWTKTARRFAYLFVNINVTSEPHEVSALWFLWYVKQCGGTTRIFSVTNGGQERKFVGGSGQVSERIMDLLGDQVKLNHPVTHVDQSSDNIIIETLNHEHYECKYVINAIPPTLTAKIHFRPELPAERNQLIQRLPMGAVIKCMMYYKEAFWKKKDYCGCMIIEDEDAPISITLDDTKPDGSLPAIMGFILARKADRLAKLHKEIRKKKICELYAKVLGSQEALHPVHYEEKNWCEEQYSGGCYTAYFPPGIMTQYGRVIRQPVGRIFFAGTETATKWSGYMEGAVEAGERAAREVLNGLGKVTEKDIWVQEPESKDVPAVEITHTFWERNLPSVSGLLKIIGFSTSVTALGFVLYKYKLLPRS
Assay: hMAO-A enzyme kinetics (Lineweaver-Burk, Dixon, secondary plots)
Format: biochemical
Settings: from secondary plots; read-out: Kiu, hMAO-A
MEASURED_METRIC: Ki (µM)

>>> df
                               smiles_text                            assayed_target  units_text  observed_value
0  Cc1coc2c1C(=O)C(=O)c1c-2ccc2c1CCCC2(C)C  recombinant human monoamine oxidase A (hMAO-A) (Homo sapiens, UniProt P21397)          µM            2.74

====

Target: UniProt:P08173
Sequence (P08173 1-479): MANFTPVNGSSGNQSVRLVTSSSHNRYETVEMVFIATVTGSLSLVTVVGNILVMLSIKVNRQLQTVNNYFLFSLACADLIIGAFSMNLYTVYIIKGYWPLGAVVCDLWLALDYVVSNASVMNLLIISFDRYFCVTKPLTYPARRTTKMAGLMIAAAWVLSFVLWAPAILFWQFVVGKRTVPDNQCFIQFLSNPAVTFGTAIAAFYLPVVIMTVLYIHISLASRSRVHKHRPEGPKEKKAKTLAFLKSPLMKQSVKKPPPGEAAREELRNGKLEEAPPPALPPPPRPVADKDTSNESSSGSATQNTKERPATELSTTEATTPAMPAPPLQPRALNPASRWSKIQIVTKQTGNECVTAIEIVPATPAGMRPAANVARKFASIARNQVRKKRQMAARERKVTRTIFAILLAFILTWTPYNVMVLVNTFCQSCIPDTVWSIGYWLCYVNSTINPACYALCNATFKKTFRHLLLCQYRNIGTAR
Assay: M4 (h) functional GPCR assay, antagonist effect, cAMP HTRF
Details: CHO cells, cAMP; read-out: Reference IC50, M4 reference antagonist
MEASURED_METRIC: IC50

>>> print(df.to_string())
                                   molecule  assayed_target  measured_metric  observed_value
0  CCOC(=O)c1c(C)[nH]c2ccc3c(c12)CN1CCc2cc(OC)ccc2C1O3 (stereo not shown) [PD 102807, reference compound]  UniProt:P08173             IC50           36 nM

Data provenance is paper PMC8301926.
